Test: yeast display, Sf9 membrane polyspecificity reagent, FACS + sequencing; frameworks hold sequencing errors
readout type: polyreactivity (PSR sort gate)

Record excerpt, results attached:
HVQLVESAGGLVQAGGSLRVSCAASGRTFEDNAMGWSRPAPGKERELVAAISSAGSTNYADSVKGRFTISRDNAKNTVYLQMTSLKPEDTAVYYCNATVYWPYDWRTSDYWGHGTQVTVSS | low polyreactivity
QVQLVESGGGLVQAGGSLRLSSAASGRIFPYYAMGWYRQAPGKETELVATISSGGRTNYADSVKGRFTISRDNAKYTVYLQMNSLKPEDTAVYYCAADYRKSRVFYGLYYWGQGTQVTVSS | high polyreactivity
QVQLVESGGGLVQAGGSLRLSCAASGLIFRGYTMGWYRQAPGKEREFVAAITRRGTSTYYADSVKGRFTISRDNAKNTVYLQMNSLKPEDTAVYYCAARSVSGPRGYPYDYWGQGTQVTVSS | high polyreactivity
QVQLVESGGGLVQAGGSLRLSCAASGSTFYKYAMGWSRQAPGKERELVASITGGTRTYYADSVKGRFTISRDNAKNTVYLQMNSLKPEDTAVYYCNVVGGRYLYSAYDYWGQGTQVTVSS | low polyreactivity

Now let's try a different one.
Q: Data request, read-out polyreactivity (PSR sort gate), for "QVQLVESGGGLVQAGGSLRLSCAASGFIFAYYAMGWYRQAPGKERELVAAITNSGGSTYYADSVKGRFTISRDNAKNTVYLQMNSLKPEDTAVYYCAAVIRPRYYQVRPRYDYWGQGTQVTVSS"
Result: low polyreactivity

* * *

Assay: yeast display, Sf9 membrane polyspecificity reagent, FACS + sequencing; frameworks hold sequencing errors
readout type: polyreactivity (PSR sort gate)

QVQLVESGGGLVQAGGSLRLSCAASGSTFPRNAMVWYIQAPGKERELVAAISRRGGSTYYADSVKGLFTISRDNAKNTVYLQMNSLKPEDTAVYYCAAATRYAIYGRYSRYDYWGQGTQVTVSS | high polyreactivity
QVQLVESGGGLVQAGGSLRLSCAASGSIFSYYAMGWYRQATGKERELVAAITRGGTTYYAVCVKGRFTISRDNAKNTVYLQMNSLKPDDTAVYYCAVYYYSGTAGYRYGYWGQGTQVTVSS | high polyreactivity
QVQLVESGGGLVQAGGSLRLSCAYSGLTFTWYAMGWYRQAPGKERELVAGISSGTSTNYADSVKGRFSISRDTAKNTVYLQMNSMKAEATAVYYCNAKQLGKFDYWGQGTHVTVSS | low polyreactivity
QVQLVESGGGLVQAGGSLRLSCAASGRTFLYNARGWSRQAPGKEMELVAAITKSGGSKYYADSVKGRFTISRDNAKNTVYLQMNSLKPEDTAVYYCAAARRYYTYYREDYYYWGQGTQVTVSS | high polyreactivity
QVQLVESGGGLVQAGGSLRLTCAASGFTFDRYAMGWYRQAPGKEREVVAAISRSGTSTYYADSVKGRFTISRDNAKNTVYLQMNSLKPEDTAVYYCATRYNVYFPSRRYQYDYWGQGSQVTVSS | high polyreactivity
QVQLVESGGGLVQEGGSLRLSCAACGFTFTTNAMGWYRQAPGKERELVAGITFIGGSTYYADSVKGRFTISRDNAKNTVYLQMNNLKPEDTAVYYCAAEWVLVYLQYTYEDYDYWGQGTQVTVSS | low polyreactivity

Q: Entry "QVQLVESGGGLVQAGGSLRLSCAAYGHFFAIYAMGWYSQAPGKEREFVAAITFTTRTYYADSVKGRFTISRDNAKNTVYLQMNSLKPEDTAVYYCAAGGYGEEYDYWGQGTQVTVSS" has what polyreactivity (PSR sort gate)?
Result: low polyreactivity

Q: Fill in: polyreactivity (PSR sort gate) of "QVQLVESGGGLVQAGGSLRLSCAASGFTIYAYTMGWYRQAPGKERDLVASITSRGGTTYYADSVKGRFTISRDNEKNTVYLQMNSLKPEDTAVYYCNARGYFGWYAMDYCGQGTQVTVSS" is ___
Result: high polyreactivity

Q: Entry "QGQLVESGGGLVQAGGSLRLSCAASGSIFPYYAMGWYRQAHGKERELVAVITTSGGRTYYADSVKGRFTISRDNAKNTVYLQMNSLKPADTAVYYCATDVRQGSGWRYYYWGQGTQVTVSS" has what polyreactivity (PSR sort gate)?
Result: high polyreactivity

Q: Param item = "QVQLVESGGGLVQAGGSLRLSCAASGFIFPSNSMGWYRQAPGKEREFVAAISSRGGSTTYADSVKGRFTISRDYAKNTVYLQMNSLKPEDTAVYYCARDWYYYPQYRQRYYYWGQGTQVTVSS" ; retrieve measured polyreactivity (PSR sort gate).
Result: high polyreactivity

Q: Looking for the measured polyreactivity (PSR sort gate) of "QDQLVESGGELVQAGGSLRLSCASSGRTFSANGMGWYRQAPAKERELVAAITRSGGITYYADSVKGRFTISRVNAKNTVYLQMNSLKPEDTAVYYCAASVYSLSRRSWMDYWGQGTQVTVSS" , can you help?
Result: low polyreactivity

* * *

Assay: yeast display, Sf9 membrane polyspecificity reagent, FACS + sequencing; frameworks hold sequencing errors
readout type: polyreactivity (PSR sort gate)

// worked examples, polyreactivity (PSR sort gate) included
QVQLVESGGGLVQAGGSLRLSCAASGRTFPRYVMGWYRQAPGKERELVAAITSSGGSTYYADSVKGRFTISRDNAKNTVYLQMNSLKPEDTAVYYCAAYARPYSGPYAYRLDYWGQGTQVTVSS | high polyreactivity
QVQLVESGGGLVQAGGSLRLSCAASGRTFTHNVMGWYRQAPGKERELVAGISSTGGSTYYADSVKGRFTISRDNAKNTVYLQMNSLKPEDTAVYYCAVIGYHYSAISPPSQTRQGYDYWGQGTQVTVSS | low polyreactivity
QVQLVESGGCLVQAGGSLRLSCAASGSIFLFNAMGWYRQAPGKDRELVATISWSGVVLRTYADSVKGRFTISRDNAKNTVYLQMNSLKPEDTAVYNCAARDLAFFTEYGYWGQGTQVSVSS | high polyreactivity
QVQLVESGGGLVQAGGSLRLSCAPSGFIFRYYAMGWYRHAPGKERELVAAISRTSGRTYYADSVKGRFTISRDNAKNTVYLQMNSLKPEYTAVDYCAAVVRNPGTYEYWGQGTQVTVSS | high polyreactivity
QVQLVESGGGLVQAGGSLRLSSAASGITFDVNVMGWYRQAPRKERELVAAIRRGDSTDYADSVKGRFSISRDNEKNTVYLQMKSLKPEDTAVYYCAADDSGYELRAYTWPYFGYDYWGQGTQVTVSS | low polyreactivity
QVQLVESGGALVQAGGSLRISCAASGRIFDGYTMGWSRQAPGKERELVAAITSGGGSTYYADSVKGRFTISRDNAKNTVYLQMNSLKPEDTAVYYCAAYRRNTYWGQGTQVTVSS | high polyreactivity
QVQLVESGGGLVQAGGSLRLSCAASGNIFSYYAMGWYRQATGIERELVAAISGRGTRTYYADSVKGRFSISRDNAMNTVYLQMNSLNPEDTAVYYCATEVRRLNEFDYWGQGTQVTVSS | high polyreactivity
QVQLVESGGGLVQAGGNLRLSCAASGNIFYVYAMGWYRQAPGKERELVAAITRSGGRTYYADSVKGRFTISRDNAKNTVYLQMNSLKPEETAVYYCAADRGVTRQKMDYWGQGTQVTVSS | low polyreactivity
QVQLVESGGGLVQAGGSLRLSCAASGLTFQLYTMGWYRQAPGKERELVAAISRSGTRTYYADSVKGRFTISRDNAKNTVYLQMNSLKPEDTAVYYCAARTDGYRNNYWGQGTQVTVSS | high polyreactivity
QVQLVESGGGLVQAGGSLRLSCAASGRILGYYSMGWYRQAPGKERELVAGITSGGSTYYADSVKGRFTISRDNAKNTVYLQMNSLKPEDTAVYYCATVHGVYQRRYYFWGQGTQVTVSS | high polyreactivity

Moving on to another sequence below.
Q: Could you tell me which polyreactivity (PSR sort gate) is on file for "QVQLVESGGGLVQAGGSLRLSCAASGFIFGTNAMGWYRQAPGKERELVASISSTGGSTYYADSVKGRFTISRDNAKNTVYLQMNSLKPEDTAVYYFSADPYPEYIRYLPGVDYWGQGTQVTVSS" ?
Result: low polyreactivity

* * *

Assay: yeast display, Sf9 membrane polyspecificity reagent, FACS + sequencing; frameworks hold sequencing errors
readout type: polyreactivity (PSR sort gate)

QVQLVESGGGLVQAGGSLRLSCAASGSIFNRYAMGLYRQAPVKERELVAAISSTGSTYYADSVKGRFTISRDNAKNTVYLQMNSLKPEDTAVYYCATDDPLSQINEQGMDYWGQGTQVTVSS | low polyreactivity
QVQLVESGGGLVQAGGSLRLSCAASGSIFRAYVMGWYRQAPGKERELVAAISRGGSTNYADSVKGRFTISRDNAKNTVYLQMNSLKPEDSAVYYCAADWYFYSMYDEVEYWGQGTQVTVSS | low polyreactivity
QVQLVESGGGLVQAGGSLRLSCAASGSTFPGYAMGWYRQAPGKERELVAAITTSGGSTYYADSVKGRFTISRDNAKNTVYLQMNSLKPEDTAVYYCAADYWYYLDAGYYWGQGTQVTVSS | low polyreactivity
